Tested on: Fibroblast
Experiment: Multiplex assay against human fibroblast
Format: toxicity, cell-based
Conditions: 24 h, 10 µM, compound concentration 10 uM, replicate 2
Note to self: use fulfilled only for Population Mitotic Cells (%) readings below 50%; a reading exactly at 50% still gets not fulfilled.

Is 50% strictly greater than the compound's reported Population Mitotic Cells (%)? compound: COc1cc(-n2cnc3cc(-c4ccc(Cl)cc4)sc3c2=O)ccc1OCCN1CCCC1
not fulfilled

Similarly, OC1(c2ccc(Cl)cc2)CCN(Cc2c[nH]c3ccccc23)CC1 ?
fulfilled

Similarly, CN1CCC[C@@H]1CCO[C@](C)(c1ccccc1)c1ccc(Cl)cc1.O=C(O)/C=C/C(=O)O [CLEMASTINE FUMARATE] ?
fulfilled

More entries:
Is 50% strictly greater than the compound's reported Population Mitotic Cells (%)? compound: Cn1cc(-c2[nH]c3cc(NC(=O)[C@H](N)C4CCCCC4)cc4c3c2C=NNC4=O)cn1
fulfilled

Similarly, CN(C)C(=O)N[C@H]1CC[C@H](CCN2CCN(c3cccc(Cl)c3Cl)CC2)CC1.Cl [CARIPRAZINE HYDROCHLORIDE] ?
fulfilled

Similarly, Cc1cc(C)cc(-c2cnc3cc(Cl)c(-c4cccc(O)c4)cc3c2OCCCN)c1 ?
fulfilled

Similarly, CNCc1ccc(-c2cc(-c3nc(-c4ccc(S(=O)(=O)C(C)C)cc4)cnc3N)on2)cc1 ?
fulfilled

Similarly, Cc1nc(-c2cn3c(n2)-c2ccc(-c4cnn(C(C)(C)C(N)=O)c4)cc2OCC3)n(C(C)C)n1 ?
not fulfilled

Similarly, C=CC(=O)Nc1ccc2ncnc(Nc3ccc(OCc4cccc(F)c4)c(Cl)c3)c2c1.Cc1ccc(S(=O)(=O)O)cc1 ?
fulfilled

Similarly, CCN(CC)CCCCNc1ncc2cc(-c3cc(OC)cc(OC)c3)c(NC(=O)NC(C)(C)C)nc2n1 ?
fulfilled

Similarly, CC(C)(O)CNc1ncc(-c2ccnc(Nc3ccnc(Cl)c3)n2)c(CC2CC2)n1 ?
not fulfilled

Similarly, C=CC(=O)Nc1cccc(C(=O)Nc2ccc(Nc3cc(-c4[nH]c(SC)nc4C)ccn3)cc2)c1 ?
not fulfilled

Similarly, Cc1nc(Nc2n[nH]c3c2CN(C(=O)N[C@H](CN(C)C)c2ccccc2)C3(C)C)c2sccc2n1 ?
fulfilled

* * *

Test system: HEK-293T
Assay: Multiplex assay against HEK293T;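 for Population Tubulin-Different-Phenotype (%): share of the cells with healthy nuclei that show this phenotype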
Assay type: toxicity, cell-based
Settings: human, 24 h, 10 µM, compound concentration 10 uM, replicate 1
Consider the following compounds and their measured Population Tubulin-Different-Phenotype (%) readings.
Report the value in % with no unit label.

Past entries and their recorded results:
Which Population Tubulin-Different-Phenotype (%) is reported for this compound? CN1CCN(CCOc2cc(OC3CCOCC3)c3c(Nc4c(Cl)ccc5c4OCO5)ncnc3c2)CC1 [SARACATINIB]
90

Similarly, CN1CCC[C@@H]1CCO[C@](C)(c1ccccc1)c1ccc(Cl)cc1.O=C(O)/C=C/C(=O)O [CLEMASTINE FUMARATE] ?
94

Similarly, C=CC(=O)Nc1cc2c(Nc3ccc(F)c(Cl)c3)ncnc2cc1OCCCN1CCOCC1.Cl.Cl [CANERTINIB DIHYDROCHLORIDE] ?
12

More entries:
Which Population Tubulin-Different-Phenotype (%) is reported for this compound? Cc1csc2c(N[C@@H](C)CN3CCN(S(=O)(=O)c4ccc(Cl)c(Cl)c4)CC3)ncnc12
63

Similarly, CN(C)C(=O)/C(C#N)=C/c1ccc(-c2nc3cnc4[nH]ccc4c3n2C2CCCCC2)o1 ?
57

Similarly, c1cn2cc(-c3ccc4cn[nH]c4c3)nc(Nc3ccc(N4CCOCC4)cc3)c2n1 [ENTOSPLETINIB] ?
75

Similarly, CCN(CC)CCCCNc1ncc2cc(-c3cc(OC)cc(OC)c3)c(NC(=O)NC(C)(C)C)nc2n1 [PD-173074] ?
50

Similarly, C[C@@H](NCCCc1cccc(C(F)(F)F)c1)c1cccc2ccccc12.Cl [CINACALCET HYDROCHLORIDE] ?
96

Similarly, CC(C)NCC(O)COc1ccc(CCOCC2CC2)cc1.Cl (configuration not stated) [BETAXOLOL HYDROCHLORIDE] ?
80

Similarly, Cc1nc(-c2cn3c(n2)-c2ccc(-c4cnn(C(C)(C)C(N)=O)c4)cc2OCC3)n(C(C)C)n1 [TASELISIB] ?
11

* * *

Consider the following molecules and their measured Population Mitotic Cells (%) readings.
System: HEK-293T
Experiment: Multiplex assay against HEK293T
Format: toxicity, cell-based
Conditions: human, 48 h, 10 µM, compound concentration 10 uM, replicate 2
Report the value in % with no unit label.

Past entries and their recorded results:
Which Population Mitotic Cells (%) is reported for this molecule? Nc1c(C(=O)NCc2ccc(C(=O)NCCCC3CCCCC3)cc2)cnn1-c1ccccc1
33

Similarly, C=CC(=O)Nc1cccc(C(=O)Nc2ccc(Nc3cc(-c4[nH]c(SC)nc4C)ccn3)cc2)c1 ?
74

Similarly, c1cn2cc(-c3ccc4cn[nH]c4c3)nc(Nc3ccc(N4CCOCC4)cc3)c2n1 ?
73

Similarly, CNCc1ccccc1-c1csc([C@H](C)Nc2nc(C)nc3cc(OC)c(OC)cc23)c1 ?
3

More entries:
Which Population Mitotic Cells (%) is reported for this molecule? COc1cc(-n2cnc3cc(-c4ccc(Cl)cc4)sc3c2=O)ccc1OCCN1CCCC1
10

Similarly, CC[C@H](C)C(=O)O[C@H]1C[C@@H](C)C=C2C=C[C@H](C)[C@H](CC[C@@H]3C[C@@H](O)CC(=O)O3)[C@H]21 ?
91

Similarly, C=CC(=O)Nc1ccc2ncnc(Nc3ccc(OCc4cccc(F)c4)c(Cl)c3)c2c1.Cc1ccc(S(=O)(=O)O)cc1 ?
40

Similarly, Cn1cc(-c2[nH]c3cc(NC(=O)[C@H](N)C4CCCCC4)cc4c3c2C=NNC4=O)cn1 ?
10

Similarly, CN(C)C(=O)N[C@H]1CC[C@H](CCN2CCN(c3cccc(Cl)c3Cl)CC2)CC1.Cl [CARIPRAZINE HYDROCHLORIDE] ?
17

Similarly, CN1CCN(c2ccc(OC(F)(F)F)c(Nc3ncc4c(n3)-c3c(c(C(N)=O)nn3CCO)CC4)c2)CC1 ?
48

Similarly, CN1CCCC(n2nc(Cc3ccc(Cl)cc3)c3ccccc3c2=O)CC1.Cl (configuration not stated) [AZELASTINE HYDROCHLORIDE] ?
10

Similarly, Cc1c(-c2ccc(O)cc2)n(Cc2ccc(OCCN3CCCCCC3)cc2)c2ccc(O)cc12 ?
4

* * *

Tested on: U2OS
Assay: Multiplex assay against U2OS
Format: toxicity, cell-based
Settings: human, 12 h, 1 µM, compound concentration 1 uM, replicate 2
Could you label it MET if measured Population Pyknosed Nuclei (%) is 8% or higher, and NOT MET otherwise?

Answered cases to consult:
Dear colleague, could you confirm whether CN1CCC[C@@H]1CCO[C@](C)(c1ccccc1)c1ccc(Cl)cc1.O=C(O)/C=C/C(=O)O [CLEMASTINE FUMARATE] has Population Pyknosed Nuclei (%) at or above 8%?
NOT MET

Similarly, CNc1nc(NCc2ccc(NS(C)(=O)=O)cc2Cl)cc(-c2ccccn2)n1 ?
NOT MET

Similarly, COc1ncc(-c2ccc3nccc(-c4ccnnc4)c3c2)cc1NS(=O)(=O)c1ccc(F)cc1F ?
MET

Similarly, COc1cc(-n2cnc3cc(-c4ccc(Cl)cc4)sc3c2=O)ccc1OCCN1CCCC1 ?
MET

Similarly, c1cn2cc(-c3ccc4cn[nH]c4c3)nc(Nc3ccc(N4CCOCC4)cc3)c2n1 ?
MET

# evaluate next
Dear colleague, could you confirm whether O=C1NCN(c2ccccc2)C12CCN(CCCOc1ccc(F)cc1)CC2 [SPIRAMIDE] has Population Pyknosed Nuclei (%) at or above 8%?
NOT MET

* * *

Tested on: U2OS
Assay: Multiplex assay against U2OS
Format: toxicity, cell-based
Details: human, 24 h, 1 µM, compound concentration 1 uM, replicate 1
quantity kind: Population Mitochondria Different-Phenotype (%)
Report the value in % with no unit label.

Which Population Mitochondria Different-Phenotype (%) is reported for this compound? Cc1csc2c(N[C@@H](C)CN3CCN(S(=O)(=O)c4ccc(Cl)c(Cl)c4)CC3)ncnc12
27

Similarly, Cn1cc(-c2[nH]c3cc(NC(=O)[C@H](N)C4CCCCC4)cc4c3c2C=NNC4=O)cn1 ?
3

Here's the next entry for you.
Which Population Mitochondria Different-Phenotype (%) is reported for this compound? C[C@@H](NCCCc1cccc(C(F)(F)F)c1)c1cccc2ccccc12.Cl [CINACALCET HYDROCHLORIDE]
20

* * *

Tested on: U2OS
Test: Multiplex assay against U2OS
Type: toxicity, cell-based
Conditions: human, 48 h, 10 µM, compound concentration 10 uM, replicate 2
Consider the following molecules and their measured Population Membrane Permeable-Phenotype (%) readings.
Report the value in % with no unit label.

Give U2OS Population Membrane Permeable-Phenotype (%) for c1cn2cc(-c3ccc4cn[nH]c4c3)nc(Nc3ccc(N4CCOCC4)cc3)c2n1
20

More entries:
Give U2OS Population Membrane Permeable-Phenotype (%) for NC(=O)Nc1cc(-c2cccc(F)c2)sc1C(=O)N[C@H]1CCCNC1
100

Similarly, CN(C)C(=O)/C(C#N)=C/c1ccc(-c2nc3cnc4[nH]ccc4c3n2C2CCCCC2)o1 ?
27

Similarly, Cl.N#Cc1ccc2[nH]cc(CCCCN3CCN(c4ccc5oc(C(N)=O)cc5c4)CC3)c2c1 [VILAZODONE HYDROCHLORIDE] ?
75

Similarly, C[C@@H](NCCCc1cccc(C(F)(F)F)c1)c1cccc2ccccc12.Cl [CINACALCET HYDROCHLORIDE] ?
78

Similarly, Cc1cc(C)cc(-c2cnc3cc(Cl)c(-c4cccc(O)c4)cc3c2OCCCN)c1 ?
100

Similarly, CNc1nc(NCc2ccc(NS(C)(=O)=O)cc2Cl)cc(-c2ccccn2)n1 ?
20

Similarly, COc1cccc([C@@H](C)NCCCc2ccccc2Cl)c1.Cl [TECALCET HYDROCHLORIDE] ?
36

Similarly, CC(C)NCC(O)COc1ccc(CCOCC2CC2)cc1.Cl (centres undefined) [BETAXOLOL HYDROCHLORIDE] ?
9

Source: ChEMBL document CHEMBL4689842
